Consider the following MIC values measured on M. abs.

Below, each entry is followed by its recorded MIC result.
Req: Write down measured MIC (M. abs) for this compound. O=C(Nc1nc(-c2ccc(Cl)cc2Cl)cs1)C12CC3CC(CC(C3)C1)C2 [18b]
Resp: > 157 µM

Req: Write down measured MIC (M. abs) for this compound. O=C(NC12CC3CC(CC(C3)C1)C2)c1ccc2ccccc2c1 [13d, N-(1-Adamantanyl)-2-naphthamide]
Resp: > 209 µM

Req: Write down measured MIC (M. abs) for this compound. O=C(NC12CC3CC(CC(C3)C1)C2)c1cc(=O)c2c(Br)cccc2[nH]1
Resp: > 159 µM

We next turn to a different compound, shown below.
Req: Write down measured MIC (M. abs) for this compound. O=C(NC1CCCCCCC1)c1ccc2ccccc2c1 [13c, N-Cyclooctyl-2-naphthamide]
Resp: > 227 µM

Hello, the source for this data is paper PMC7497412, in case you need it.
